# target_of_assay: T1, mouse Trop-2-His (mouse, UniProt Q8BGV3 25-270)
# T1 sequence (looked up): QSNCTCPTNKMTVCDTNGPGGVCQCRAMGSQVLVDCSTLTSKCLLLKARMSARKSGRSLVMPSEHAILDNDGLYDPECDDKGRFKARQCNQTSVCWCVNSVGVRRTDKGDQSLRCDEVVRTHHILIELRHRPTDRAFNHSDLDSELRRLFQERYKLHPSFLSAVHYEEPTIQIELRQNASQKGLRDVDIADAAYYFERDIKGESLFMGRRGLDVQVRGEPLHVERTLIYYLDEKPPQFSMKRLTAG
# procedure_details: ELISA on coated antigen, one antibody dilution (concentration not given), detected by GAH-HRP; y axis without a label (OD450 by the text)
recorded_endpoint: binding result

>  <binder>
humanized IgG #118-2-5 HuC/LuY (antibody, V domains shown, Full-length IgG expressed in HEK293-6E cells; also called 7 (HuC/LuY)) VH: QVQLQESGPGLVKPSETLSLTCTVSGFSLTSYGVNWIRQPPGKGLEWIGVMWAGGSTNYNSALMSRLSISKDNSKSQVFLKMNSLQTDDTGMYYCARDENWDGAWFAYWGQGTLVTVSS VL: DIVMTQSPSSLAVSLGERATMSCKSSQSLLNSGTRKNYLAWYQQKPGQPPKLLISWASSRESGVPDRFSGSGSGTDFTLTISSVQAEDLAVYYCKQSYNLFTFGGGTKVEIK

>  <recorded_endpoint>
binding result

>  <value_measured>
no binding

$$$$
>  <binder>
#118-2-5 mouse H4-2/L3-3 (antibody, V domains shown, The label H4-2/L3-3 is not explained) VH: QVQLKQSGPGLVAPSQSLSITCTVSGFSLTSYGVNWIRQPPGKGLEWLGVMWAGGSTNYNSALMSRLSISKDNSKSQVFLKMNSLQTDDTGMYYCARDENWDGAWFAYWGQGTLVTVS VL: DIQMTQSPSSLAVSAGEKVTMSCKSSQSLLNSGTRKNYLAWYQQKPGQSPKLLISWASSRESGVPDRFTGSGSGTDFTLTISSVQAEDLAVYYCKQSYNLFTFGGGTKLELK

>  <recorded_endpoint>
binding result

>  <value_measured>
no binding

$$$$
>  <binder>
humanized IgG #118-2-5 HuD/LuX (antibody, V domains shown, Full-length IgG expressed in HEK293-6E cells; also called 4 (HuD/LuX)) VH: QVQLKESGPGLVAPSETLSITCTVSGFSLTSYGVNWIRQPPGKGLEWLGVMWAGGSTNYNSALMSRLTISKDTSKNQVSLKLSSVQAADTAMYYCARDENWDGAWFAYWGQGTLVTVSS VL: DIVMTQSPDSLAVSLGERATINCKSSQSLLNSGTRKNYLAWYQQKPGQPPKLLIYWASSRESGVPDRFSGSGSGTDFTLTISSLQAEDVAVYYCKQSYNLFTFGGGTKVEIK

>  <recorded_endpoint>
binding result

>  <value_measured>
no binding

$$$$
